# test_system: RBM39(Δ150) (Homo sapiens, UniProt Q14498)
# Sequence (Q14498 151-530, stated change not applied): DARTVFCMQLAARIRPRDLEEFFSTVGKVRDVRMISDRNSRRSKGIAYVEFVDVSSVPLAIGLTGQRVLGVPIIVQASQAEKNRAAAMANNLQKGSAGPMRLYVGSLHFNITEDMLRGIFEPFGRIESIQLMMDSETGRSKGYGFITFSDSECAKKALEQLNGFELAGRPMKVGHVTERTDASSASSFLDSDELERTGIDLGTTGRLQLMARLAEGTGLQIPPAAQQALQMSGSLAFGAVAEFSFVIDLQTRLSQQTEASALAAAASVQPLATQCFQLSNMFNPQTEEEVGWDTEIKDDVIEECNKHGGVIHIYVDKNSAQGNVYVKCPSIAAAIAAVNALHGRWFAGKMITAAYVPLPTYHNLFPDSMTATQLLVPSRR
pKd: −log10 of the molar value.
parameter_measured: pKd

For RBM39(Δ150) (Homo sapiens, UniProt Q14498), give pKd of the listed compound: NS(=O)(=O)c1ccc(S(=O)(=O)Nc2cccc3c(Cl)c[nH]c23)cc1 [Indisulam]
< 4.30

----------
# test_system: DCAF15-DDB1-DDA1 with RBM39(Δ150) (Homo sapiens, UniProt Q14498+Q66K64)
# method: TR-FRET ternary complex recruitment assay
parameter_measured: pEC50
Just so you know, pEC50 here is -log10 of the concentration in molar units; reply with that number alone.

1) Cc1ccc(NS(=O)(=O)c2ccc(CN)cc2)c2[nH]cc(C#N)c12: 5.62

Look up and state reported pEC50 for Cc1c[nH]c2c(NS(=O)(=O)c3ccc(S(=O)(=O)N(C)C)cc3)cccc12
4.91

Provide only the value of recorded pEC50 for N#Cc1c[nH]c2c(NS(=O)(=O)c3ccc(S(N)(=O)=O)cc3)cccc12
5.92

Report pEC50, nothing else, for this compound: NS(=O)(=O)c1ccc(S(=O)(=O)Nc2cccc3c(Cl)c[nH]c23)cc1
5.47
